Each entry below carries its reported pIC50.
molecular target: human LPA1 (Homo sapiens); construct: expressed in transfected cells; assay: Ca2+ mobilization assay, LPA1; format: cell-based; conditions: antagonist mode vs 200 nM LPA; PA = partial antagonist; read-out: LPA1 IC50
pIC50: −log10 of the molar value.

Molecule	pIC50
CCCCCCCCCCCCCCCC(=O)OCC(O)CC(O)P(=O)([O-])O.[Na+] (stereo not shown) [Compound 24a, reference compound]	< 4.52
CCCCCCCCCCCCCCCC(=O)OCC(O)CC(O)P(=O)([O-])O.[Na+] (mixture of isomers) [Compound 22b, reference compound]	< 4.52
CCCCCCCC/C=C\CCCCCCCC(=O)OC[C@@H](O)COP(=O)(O)O [LPA (18:1), reference compound]	< 4.52

# query: pIC50 of entry CCCCCCCC/C=C\CCCCCCCC(=O)OCC(O)CCP(=O)(O)O (stereo not shown) [Compound 20a, reference compound] < 4.52

Then this molecule: CCCCCCCCC=CCCCCCCCC(=O)OCC(O)CC(O)P(=O)([O-])O.[Na+] (mixture of isomers) [Compound 22a, reference compound] < 4.52

Now this one: CCCCCCCCCCCCCCCC(=O)OC[C@@H](O)CC(Cl)P(=O)(O)O (mixture of isomers) [Compound 18b] 5.60

Same question, CCCCCCCC/C=C\CCCCCCCC(=O)OC[C@@H](O)CC(Br)P(=O)(O)O (mixture of isomers) [Compound 19a] this time 5.79

====

Measured Ki by item
biological target: human LPA3 (Homo sapiens, UniProt Q9UBY5); construct: expressed in transfected cells; experiment: Ca2+ mobilization assay, LPA3; type: cell-based; conditions: antagonist mode vs 200 nM LPA; read-out: LPA3 (Ki)
Sequence (Q9UBY5 whole entry): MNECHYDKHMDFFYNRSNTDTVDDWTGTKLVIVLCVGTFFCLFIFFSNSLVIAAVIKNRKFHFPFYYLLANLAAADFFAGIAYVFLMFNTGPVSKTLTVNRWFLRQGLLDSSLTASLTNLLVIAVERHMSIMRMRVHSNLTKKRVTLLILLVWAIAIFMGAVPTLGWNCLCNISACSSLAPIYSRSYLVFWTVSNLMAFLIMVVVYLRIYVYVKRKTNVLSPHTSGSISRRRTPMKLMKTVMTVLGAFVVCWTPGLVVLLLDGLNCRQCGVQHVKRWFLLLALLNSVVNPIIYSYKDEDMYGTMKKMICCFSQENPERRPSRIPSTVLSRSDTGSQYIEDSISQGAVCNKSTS
Answer with the value and then the unit.

Compound	Ki
CCCCCCCCCCCCCCCC(=O)OC[C@@H](O)CC(Br)P(=O)(O)O (mixture of isomers) [Compound 1]	0.38 µM
CCCCCCCCCCCCCCCC(=O)OC[C@@H](O)CCP(=O)([O-])O.[Na+] [Compound 20b, reference compound]	0.961 µM

Could you share which Ki value was measured for CCCCCCCCCCCCCCCC(=O)OC[C@@H](O)CC(Cl)P(=O)(O)O (mixture of isomers) [Compound 18b] ? 0.0983 µM

====

target: human LPA4 (Homo sapiens); construct: expressed in transfected cells; assay: Ca2+ mobilization assay, LPA4 in CHO cells; type: cell-based; details: agonist/antagonist in words
Sequence (Q99677 whole entry): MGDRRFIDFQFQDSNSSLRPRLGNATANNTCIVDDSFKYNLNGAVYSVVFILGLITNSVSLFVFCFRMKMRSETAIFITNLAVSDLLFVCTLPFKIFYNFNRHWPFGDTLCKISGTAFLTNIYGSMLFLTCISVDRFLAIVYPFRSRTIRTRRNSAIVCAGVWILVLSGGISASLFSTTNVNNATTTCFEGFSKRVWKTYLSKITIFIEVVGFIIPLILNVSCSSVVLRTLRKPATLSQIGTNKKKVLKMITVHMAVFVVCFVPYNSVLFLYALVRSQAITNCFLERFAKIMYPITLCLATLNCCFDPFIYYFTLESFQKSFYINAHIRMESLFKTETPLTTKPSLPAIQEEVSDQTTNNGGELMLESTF
Observed Property: LPA4 ligand type

Solved entries (count: 4):
Molecule	Result
CCCCCCCCCCCCCCCC(=O)OC[C@@H](O)C[C@@H](Br)P(=O)(O)O	Partial Antagonist
CCCCCCCCC=CCCCCCCCC(=O)OCC(O)CC(O)P(=O)([O-])O.[Na+] (mixture of isomers) [Compound 22a, reference compound]	weak LPA4 agonists
CCCCCCCCCCCCCCCC(=O)OC[C@@H](O)C[C@H](Br)P(=O)(O)O	Partial Antagonist
CCCCCCCCCCCCCCCC(=O)OC[C@@H](O)CCP(=O)([O-])O.[Na+] [Compound 20b, reference compound]	weak LPA4 agonists

# lookup: LPA4 ligand type of CCCCCCCC/C=C\CCCCCCCC(=O)OCC(O)CCP(=O)(O)O (centres unmarked) [Compound 20a, reference compound] weak LPA4 agonists

====

Reported EC50 is given for each of the following compounds.
target: human LPA1 (Homo sapiens, UniProt Q92633); experiment: Ca2+ mobilization assay, LPA1; conditions: RH7777 cells stably expressing LPA1; agonist mode
Sequence (Q92633 whole entry): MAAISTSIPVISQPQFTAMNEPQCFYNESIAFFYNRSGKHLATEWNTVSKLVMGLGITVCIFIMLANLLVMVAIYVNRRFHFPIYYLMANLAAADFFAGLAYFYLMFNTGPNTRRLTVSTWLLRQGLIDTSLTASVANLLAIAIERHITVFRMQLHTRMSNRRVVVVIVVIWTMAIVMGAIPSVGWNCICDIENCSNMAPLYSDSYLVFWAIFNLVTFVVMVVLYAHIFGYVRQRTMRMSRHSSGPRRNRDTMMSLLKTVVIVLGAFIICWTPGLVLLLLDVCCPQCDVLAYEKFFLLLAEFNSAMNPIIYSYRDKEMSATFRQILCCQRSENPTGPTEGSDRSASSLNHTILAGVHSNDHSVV
State the answer as a number, implicitly in nM.

Field request: EC50 | item: CCCCCCCC/C=C\CCCCCCCC(=O)OC[C@@H](O)COP(=O)(O)O [LPA (18:1), reference compound] 100

Please do the same for CCCCCCCCCCCCCCCC(=O)OCC(O)COP(=O)(O)O (centres unmarked) [LPA (16:0), reference compound] as well. 90.8

Param item: CCCCCCCC/C=C\CCCCCCCC(=O)OC[C@@H](O)CC(Cl)P(=O)(O)O (mixture of isomers) [Compound 18a] 528

====

target: recombinant ATX-HA (Homo sapiens, UniProt Q13822); construct: HA; experiment: Autotaxin assay (FS-3 hydrolysis); conditions: 0.3 to 10 μM, FS-3 hydrolysis; read-out: ATX apparent IC50
pIC50: −log10 of the molar value.
Observed Property: pIC50

What pIC50 value was documented for this compound, CCCCCCCCCCCCCCCC(=O)OC[C@@H](O)C[C@H](Br)P(=O)(O)O ? ~6.52

Values compiled from patent US8722649B2.
